STUDY SYSTEM: soluble guanylate cyclase (sGC) (Homo sapiens (Human), UniProt Q02108+Q02153)
Sequence (Q02153 whole entry): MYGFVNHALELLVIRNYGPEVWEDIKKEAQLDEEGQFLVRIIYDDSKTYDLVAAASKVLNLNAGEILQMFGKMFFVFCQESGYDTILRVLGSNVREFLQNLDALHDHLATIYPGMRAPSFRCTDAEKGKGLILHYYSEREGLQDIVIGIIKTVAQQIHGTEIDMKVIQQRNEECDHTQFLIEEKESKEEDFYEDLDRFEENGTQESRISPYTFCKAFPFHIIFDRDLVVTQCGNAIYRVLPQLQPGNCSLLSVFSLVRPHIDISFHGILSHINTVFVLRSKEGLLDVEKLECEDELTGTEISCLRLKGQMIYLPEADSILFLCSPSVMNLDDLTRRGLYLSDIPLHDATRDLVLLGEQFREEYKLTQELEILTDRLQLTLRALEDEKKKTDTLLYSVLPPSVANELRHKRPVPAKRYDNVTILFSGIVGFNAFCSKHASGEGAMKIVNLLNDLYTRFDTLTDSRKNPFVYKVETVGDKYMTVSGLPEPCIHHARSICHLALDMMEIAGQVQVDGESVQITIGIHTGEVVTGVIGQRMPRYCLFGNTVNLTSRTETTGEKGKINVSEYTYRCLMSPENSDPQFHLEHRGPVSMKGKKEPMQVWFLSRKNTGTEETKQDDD
Sequence (Q02108 whole entry): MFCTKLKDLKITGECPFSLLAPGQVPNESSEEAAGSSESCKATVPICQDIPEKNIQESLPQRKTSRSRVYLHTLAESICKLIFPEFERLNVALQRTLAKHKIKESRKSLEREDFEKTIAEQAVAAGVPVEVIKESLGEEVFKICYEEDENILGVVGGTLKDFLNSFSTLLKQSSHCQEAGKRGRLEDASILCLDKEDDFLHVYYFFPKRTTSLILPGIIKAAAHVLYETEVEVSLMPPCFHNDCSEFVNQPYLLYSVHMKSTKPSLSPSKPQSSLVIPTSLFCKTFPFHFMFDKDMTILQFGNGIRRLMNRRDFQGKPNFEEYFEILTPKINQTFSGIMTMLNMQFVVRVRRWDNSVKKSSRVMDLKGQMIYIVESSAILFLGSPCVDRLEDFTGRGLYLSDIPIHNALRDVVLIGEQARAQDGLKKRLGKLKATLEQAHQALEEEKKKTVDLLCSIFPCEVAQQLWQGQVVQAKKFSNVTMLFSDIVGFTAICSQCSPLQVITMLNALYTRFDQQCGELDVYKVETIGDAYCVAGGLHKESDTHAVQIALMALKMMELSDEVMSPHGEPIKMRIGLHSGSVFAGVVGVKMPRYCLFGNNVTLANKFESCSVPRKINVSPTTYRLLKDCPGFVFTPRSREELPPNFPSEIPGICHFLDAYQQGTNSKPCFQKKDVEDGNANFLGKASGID
ASSAY OVERVIEW: sGC-HEK-cGMP assay run with SNP incubation (HEK WC assay)
Type: cell-based
EXPERIMENTAL CONDITIONS: read-out: HEK WC Assay (% Emax at 30 μM/with 10 uM SNP)
ASSAY METRIC: Emax at 30 µM

• Nc1nc(-c2cc(-c3ccon3)n(Cc3ccccc3F)n2)ncc1N=C(c1ccccc1)c1ccccc1 = 20 to 40%
• Oc1cccc(-c2cc(-c3ccccn3)nn2Cc2ccccc2F)n1 = 0 to 10%
• CC(C)(C)c1cnc(-c2cc(-c3ccon3)n(Cc3ccccc3F)n2)nc1N = 40 to 60%
• Nc1ccnc(-c2cc(-c3ccon3)n(Cc3ccccc3F)n2)n1 = 40 to 60%
• CC(=O)Nc1cnc(-c2cc(-c3ccon3)n(Cc3ccccc3F)n2)nc1N = 80 to 100%
• Nc1ccnc(-c2cc(-c3cscn3)n(Cc3ccccc3F)n2)n1 = 20 to 40%
• N#Cc1cnc(-c2cc(-c3ccon3)n(Cc3ccccc3F)n2)nc1O = 60 to 80%
• CCOC(=O)c1cnc(-c2cc(-c3ccon3)n(Cc3ccccc3F)n2)nc1Cl = 40 to 60%
• COC(=O)N(C)c1c(N)nc(-c2cc(-c3ccsc3)n(Cc3ccccc3F)n2)nc1N = 20 to 40%
• Nc1nc(-c2cc(-c3ccon3)n(Cc3ccccc3F)n2)ncc1C(F)(F)F = 40 to 60%
• Nc1cc(-c2cccnc2)nc(-c2cc(-c3ccon3)n(Cc3ccccc3F)n2)n1 = 20 to 40%
• CCOC(=O)c1cnc(-c2cc(-c3ccon3)n(Cc3ccccc3F)n2)nc1NCc1ccc(OC)cc1 = 40 to 60%
• CCOC(=O)c1cnc(-c2cc(-c3ccon3)n(Cc3ccccc3F)n2)nc1N = 40 to 60%
• Nc1nc(-c2cc(-c3ccon3)n(Cc3ccccc3F)n2)ncc1C(=O)O = 20 to 40%
• COC(=O)N(C)c1c(N)nc(-c2cc(-c3ccccn3)n(Cc3ccccc3F)n2)nc1N = 0 to 10%
• CS(=O)(=O)c1ccc(-c2cc(-c3ccccn3)nn2Cc2ccccc2F)nc1 = 0 to 10%
• COC(=O)Nc1c(N)nc(-c2cc(-c3nccs3)n(Cc3ccccc3F)n2)nc1N = 20 to 40%
• CC(=O)Nc1c(N)nc(-c2cc(-c3nccs3)n(Cc3ccccc3F)n2)nc1N = 0 to 10%
• Cc1cc(N)nc(-c2cc(-c3ccon3)n(Cc3ccccc3F)n2)n1 = 40 to 60%
• Nc1ccnc(-c2cc(-c3cocn3)n(Cc3ccccc3F)n2)n1 = 20 to 40%
• CS(=O)(=O)c1cnc(-c2cc(-c3ccon3)n(Cc3ccccc3F)n2)nc1N = 0 to 10%
• CN(C(=O)OC(C)(C)C)c1cnc(-c2cc(-c3ccon3)n(Cc3ccccc3F)n2)nc1N = 60 to 80%
• COc1ccc(CNc2nc(-c3cc(-c4ccon4)n(Cc4ccccc4F)n3)ncc2C(C)(C)O)cc1 = 0 to 10%
• CC(C)(C)NC(=O)c1cnc(-c2cc(-c3ccon3)n(Cc3ccccc3F)n2)nc1N = 20 to 40%
• Nc1nc(-c2cc(-c3ccon3)n(Cc3ccccc3F)n2)ncc1C1CC1 = > 120%
• CCOC(=O)c1cnc(-c2cc(-c3ccon3)n(Cc3ccccc3F)n2)nc1O = 40 to 60%
• Nc1ccnc(-c2cc(-c3ccccc3)n(Cc3ccccc3F)n2)n1 = 10 to 20%
• COC(=O)Nc1c(N)nc(-c2cc(-c3ccsc3)n(Cc3ccccc3F)n2)nc1N = 10 to 20%
• CC(C)(O)c1cnc(-c2cc(-c3ccon3)n(Cc3ccccc3F)n2)nc1O = 40 to 60%
• Nc1nc(-c2cc(-c3ccon3)n(Cc3ccccc3F)n2)ncc1-c1nccs1 = 20 to 40%
• Nc1nc(-c2cc(-c3ccon3)n(Cc3ccccc3F)n2)ncc1-c1ccncc1 = 20 to 40%
• Nc1cc(C(F)(F)F)nc(-c2cc(-c3ccon3)n(Cc3ccccc3F)n2)n1 = 0 to 10%
• COc1ccc(C2=Nc3nc(-c4cc(-c5ccon5)n(Cc5ccccc5F)n4)ncc3C(C)(C)O2)cc1 = 20 to 40%

* * *

STUDY SYSTEM: Human soluble guanylate cyclase enzyme (hsGC) (Homo sapiens (Human), UniProt Q02108+Q02153)
Sequence (Q02153 whole entry): as the sequence (Q02153 whole entry) above
Sequence (Q02108 whole entry): as the sequence (Q02108 whole entry) above
ASSAY OVERVIEW: Purified human sGC enzyme activity assay
Assay type: biochemical
EXPERIMENTAL CONDITIONS: 10 μM compound
ASSAY METRIC: sGC Enzyme (specific activity at 10 μM)

• N#Cc1cc(-c2ccccn2)nn1Cc1ccccc1F = D (D = 200 to <500)
• N#Cc1ccc(-c2cc(-c3ccccn3)nn2Cc2ccccc2F)cc1 = B (B = 50 to <100)
• Fc1ccccc1Cn1nc(-c2ccccn2)cc1-c1ccccn1 = B (B = 50 to <100)
• Fc1ccccc1Cn1nc(-c2ccccn2)cc1-c1ccsc1 = D (D = 200 to <500)
• Cc1ccc(-c2cc(-c3ccccn3)n(Cc3ccccc3F)n2)nc1 = B (B = 50 to <100)

* * *

In this section we review reported inhibition at 3 µM values for a set of molecules.
Test system: Thoracic aortic rings
ASSAY OVERVIEW: Alternative thoracic aortic rings assay (Example 19b; resting tension as 100% inhibition)
Design: species or system rat
EXPERIMENTAL CONDITIONS: Rattus norvegicus; 3 μM, Table 10B; read-out: Percent Relaxation at 3 μM
ASSAY METRIC: inhibition at 3 µM

• Nc1nc(-c2cc(-c3ccon3)n(Cc3ccccc3F)n2)ncc1N1CCCC1=O [Compound I-169] = 80 to 100%
• Nc1nc(-c2cc(-c3ccon3)n(Cc3ccccc3F)n2)ncc1NC(=O)c1cnco1 [Compound I-188] = 100 to 120%
• Nc1nc(-c2cc(-c3ccon3)n(Cc3ccccc3F)n2)ncc1NC(=O)OCCCl [Compound I-152] = 80 to 100%
• Nc1nc(-c2cc(-c3ncco3)n(Cc3ccccc3F)n2)ncc1NC(=O)c1ccccc1 [Compound I-186] = 80 to 100%
• Nc1nc(-c2cc(-c3ccon3)n(Cc3ccccc3F)n2)ncc1Nc1nccs1 [Compound I-178] = 100 to 120%
• Oc1nc(-c2cc(-c3ccon3)n(Cc3ccccc3F)n2)ncc1C(F)(F)F [Compound I-216] = 80 to 100%
• COc1cccc(C(=O)Nc2cnc(-c3cc(-c4ccon4)n(Cc4ccccc4F)n3)nc2N)c1 [Compound I-174] = 80 to 100%
• CC1(C(=O)Nc2cnc(-c3cc(-c4ccon4)n(Cc4ccccc4F)n3)nc2N)CC1(F)F (stereo not shown) [Compound I-245] = 100 to 120%
• Nc1nc(-c2cc(-c3ccon3)n(Cc3ccccc3F)n2)ncc1N1CCOC1=O [Compound I-153] = 60 to 80%
• Nc1nc(-c2cc(-c3ccon3)n(Cc3ccccc3F)n2)ncc1NC(=O)c1ccccc1F [Compound I-172] = 100 to 120%
• CC(C)COC(=O)Nc1cnc(-c2cc(-c3ccon3)n(Cc3ccccc3F)n2)nc1N [Compound I-150] = 80 to 100%
• Nc1nc(-c2cc(-c3ccon3)n(Cc3ccccc3F)n2)ncc1NC(=O)c1ccccc1Cl [Compound I-185] = 100 to 120%
• Nc1nc(-c2cc(-c3ccon3)n(Cc3ccccc3F)n2)ncc1NC(=O)c1ccccn1 [Compound I-162] = > 120%

* * *

Recorded pEC50, one value per entry.
STUDY SYSTEM: soluble guanylate cyclase (sGC) (Homo sapiens (Human), UniProt Q02108+Q02153)
ASSAY OVERVIEW: sGC-HEK-cGMP assay run with SNP incubation (HEK WC assay)
Type: cell-based
EXPERIMENTAL CONDITIONS: in the presence of 10 uM SNP
pEC50: −log10 of the molar value.
ASSAY METRIC: pEC50

* Cc1ccc(C(=O)Nc2cnc(-c3cc(-c4ccon4)n(Cc4ccccc4F)n3)nc2N)cc1 [Compound I-181] | > 4.70
* O=C(Nc1cnc(-c2cc(-c3ccon3)n(Cc3ccccc3F)n2)nc1O)c1ccccc1 [Compound I-158] | 3.52 to 4.00
* O=S(=O)(c1ccccc1)c1cnc(-c2cc(-c3ncco3)n(Cc3ccccc3F)n2)nc1O [Compound I-271] | > 4.70
* Nc1nc(-c2cc(-c3ccon3)n(Cc3ccccc3F)n2)ncc1NC(=O)c1cccc(Cl)c1 [Compound I-187] | > 4.70
* Nc1nc(-c2cc(-c3ccon3)n(Cc3ccccc3F)n2)ncc1N1CCOC1=O [Compound I-153] | > 4.70
* CC(C)(C)OC(=O)Nc1cnc(-c2cc(-c3ncco3)n(Cc3ccccc3F)n2)nc1N [Compound I-148] | > 4.70
* OCCc1cnc(-c2cc(-c3ccon3)n(Cc3ccccc3F)n2)nc1O [Compound I-210] | 4.00 to 4.22
* Fc1cccc(F)c1Cn1nc(-c2ncccn2)cc1-c1ccon1 [Compound I-199] | 4.40 to 4.70
* CC(C)=CC(=O)Nc1cnc(-c2cc(-c3ccon3)n(Cc3ccccc3F)n2)nc1N [Compound I-240] | > 4.70
* CC1(C(=O)Nc2cnc(-c3cc(-c4ccon4)n(Cc4ccccc4F)n3)nc2N)CCCO1 (stereo not shown) [Compound I-232] | > 4.70
* Nc1nc(-c2cc(-c3ccon3)n(Cc3ccccc3F)n2)ncc1NC(=O)c1ccccc1F [Compound I-172] | > 4.70
* CC(C)(C)C(=O)Nc1cnc(-c2cc(-c3ccon3)n(Cc3ccccc3F)n2)nc1N [Compound I-277] | > 4.70
* Nc1nc(-c2cc(-c3ccon3)n(Cc3ccccc3F)n2)ncc1NCc1ccccc1 [Compound I-223] | 3.52 to 4.00
* Nc1nc(-c2cc(-c3ccon3)n(Cc3ccccc3F)n2)ncc1NC(=O)C1(C(F)(F)F)CC1 [Compound I-237] | > 4.70
* Fc1ccccc1Cn1nc(-c2ccccn2)cc1-c1ncon1 [Compound I-304] | 4.40 to 4.70
* CC(C)C(=O)Nc1cnc(-c2cc(-c3ccon3)n(Cc3ccccc3F)n2)nc1N [Compound I-165] | > 4.70
